B1: FAM189A2 (parent)
chain: GSEAAVIPLDLGCTQVTQDGDIPN

- Variants of: B1
- assay protocol: protein stability index of a GFP-peptide fusion (GPS, HEK-293T) (PSI 1-6); higher = more stable;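 also: lentivirally expressed fusions sorted by FACS into six bins by GFP to DsRed ratio, PSI derived from sequencing read proportions per bin multiplied by bin number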
- reported conditions: c terminus: a fixed tail appended
quantity kind: protein stability index

{"primary sequence": "GSEAAVIPLDEGCTQVTQDGDIPN", "reading": 5.02}
{"primary sequence": "GSEAMVIPLDLGCTQVTQDGDIPN", "reading": 5.01}
{"primary sequence": "GSEAAVIPLDLGCTQVTQDGVIPN", "reading": 4.94}
{"primary sequence": "GSEAAVIPLDLGCTQVTQDGAIPN", "reading": 5.07}
{"primary sequence": "ESEAAVIPLDLGCTQVTQDGDIPN", "reading": 5.05}
{"primary sequence": "GSEAAVIPLDLGCTQVTQDPDIPN", "reading": 4.97}
{"primary sequence": "GSEAAVIPLDLGCTQVTTDGDIPN", "reading": 5.02}
